# collection of HepSE_cholecystitis values tested on Hepatotoxicity;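 further: Cholecystitis-related hepatic side effect score drawn from the DILIps (drug-induced liver injury prediction) training data set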; further: call rule not given here

For orientation, consider the following solved cases.
[[record]]
compound = "CC[C@@H](CO)NC(=O)[C@@H]1C=C2c3cccc4[nH]cc(c34)C[C@H]2N(C)C1 [METHYLERGONOVINE]"
reported_property = "HepSE_cholecystitis"
result = 0

[[record]]
compound = "FC(F)OC(F)(F)C(F)Cl (stereo not given)"
reported_property = "HepSE_cholecystitis"
result = 0

[[record]]
compound = "CN1CCN(C2=Nc3cc(Cl)ccc3Nc3ccccc32)CC1 [CLOZAPINE]"
reported_property = "HepSE_cholecystitis"
result = 0

[[record]]
compound = "CCCCC1=NC2(CCCC2)C(=O)N1Cc1ccc(-c2ccccc2-c2nnn[nH]2)cc1 [IRBESARTAN]"
reported_property = "HepSE_cholecystitis"
result = 0

[[record]]
compound = "C=C(CC)C(=O)c1ccc(OCC(=O)O)c(Cl)c1Cl [ETHACRYNIC ACID]"
reported_property = "HepSE_cholecystitis"
result = 0

[[record]]
compound = "CO/N=C(\\C(=O)N[C@@H]1C(=O)N2C(C(=O)O)=CCS[C@H]12)c1csc(N)n1 [CEFTIZOXIME]"
reported_property = "HepSE_cholecystitis"
result = 0

[[record]]
compound = "O=C(CCCN1CCC(O)(c2ccc(Cl)cc2)CC1)c1ccc(F)cc1 [HALOPERIDOL]"
reported_property = "HepSE_cholecystitis"
result = 0

[[record]]
compound = "N[C@@H](Cc1ccc(N(CCCl)CCCl)cc1)C(=O)O"
reported_property = "HepSE_cholecystitis"
result = 0


Entry CC1=C(CC(=O)O)c2cc(F)ccc2/C1=C\c1ccc([S+](C)[O-])cc1 (stereo not given) ; assay system Hepatotoxicity; HepSE_cholecystitis recorded at 1

Field HepSE_cholecystitis (system: Hepatotoxicity) for entry Nc1nc2ccc(OC(F)(F)F)cc2s1 [RILUZOLE] = 1
